Values compiled from ChEMBL document CHEMBL1157539.

# Tested on: HepG2
# Test Description: GSK_TCMDC: Percent inhibition of human HepG2 cell line. Test compounds present at 10uM.
# Assay type: functional
Form field: Inhibition (one value per entry).
Measure: Inhibition (%)

- Compound: "NC(=O)c1ccsc1NC(=O)CNC(c1ccccc1)c1ccccc1"
  Display Unit: "%"
  Value Measured: 8
- Compound: "CCCN(CCC)C(=O)c1cc(C(=O)N[C@@H](Cc2ccccc2)[C@H](O)CNC2CC2)cc(N2CCCCS2(=O)=O)c1"
  Display Unit: "%"
  Value Measured: 0
- Compound: "N#Cc1ccc(CN2CCC(Oc3ccc(NC(=O)c4ccsc4)cc3Cl)C2)cc1.O=C(O)C(F)(F)F (centres undefined)"
  Display Unit: "%"
  Value Measured: 29
- Compound: "CCNc1cc(C(=O)N[C@@H](Cc2ccccc2)[C@H](O)CNCc2ccc3c(c2)OCCO3)cc(N2CCCCS2(=O)=O)c1.O=CO"
  Display Unit: "%"
  Value Measured: 0

====

# Test system: HepG2
# Test Description: GSK_TCMDC: Percent inhibition of human HepG2 cell line. Test compounds present at 10uM.
# Type: functional
// bucketize Inhibition: bin 1 (below 20%), bin 2 (20% to below 60%), bin 3 (60% or more)

- Compound: "COc1ccc2cc(C(c3nnnn3CC3CCCO3)N3CCc4ccccc43)c(=O)[nH]c2c1 (stereo not drawn)"
  Cat: "bin 1"
- Compound: "CN1CCCC(CN2CCN(Cc3cccc(-c4ccc(-c5nc6cc(C(F)(F)F)ccc6[nH]5)cc4)c3)CC2)C1.O=C(O)C(F)(F)F (stereo not drawn)"
  Cat: "bin 3"
- Compound: "O=C(Nc1cccc(CN2CCCN(CCc3ccccc3)CC2)c1)c1cc2ccccc2s1.O=C(O)C(F)(F)F"
  Cat: "bin 2"
- Compound: "Cc1cccc2nc(-c3ccc(-c4ccc(CN5CCN(c6ccncc6)CC5)cc4)s3)[nH]c12.O=C(O)C(F)(F)F"
  Cat: "bin 3"
- Compound: "O=C(/C=C/c1ccc(Cl)cc1)NCCCCCN1CCC(C(=O)Nc2cccc(Cl)c2)CC1"
  Cat: "bin 2"
- Compound: "O=C(C=Cc1ccc(Cl)c(Cl)c1)NCCCCCN1CCC(CCNS(=O)(=O)c2ccc(Br)cc2)CC1"
  Cat: "bin 2"
- Compound: "CCN1CCN(C(=O)NC(C(=O)N(C)Cc2ccc(-c3ccc(C(F)(F)F)cc3)cc2)c2cccs2)C(=O)C1=O (stereo not drawn)"
  Cat: "bin 1"
- Compound: "CS(=O)(=O)O.FC(F)(F)COc1ccc2ccccc2c1CCNCCCCNCCc1c(OCC(F)(F)F)ccc2ccccc12"
  Cat: "bin 3"
- Compound: "O=[N+]([O-])c1ccc2nc(Nc3cccc(C(F)(F)F)c3)c(Nc3cccc(C(F)(F)F)c3)nc2c1"
  Cat: "bin 1"
- Compound: "Cc1cccc2nc(-c3ccc(-c4cccc(CN5CC(C)OC(C)C5)c4)s3)[nH]c12.O=C(O)C(F)(F)F (stereo not drawn)"
  Cat: "bin 1"
- Compound: "CC(=O)c1cccc(NC(=O)C2c3ccccc3C(=O)N(CC(C)C)C2c2cccs2)c1 (stereo not drawn)"
  Cat: "bin 1"
- Compound: "CCN(CC)CCOc1ccc(C(O)(C#CC(O)(c2ccc(C)cc2)c2ccc(OCCN(CC)CC)cc2)c2ccc(C)cc2)cc1 (stereo not drawn)"
  Cat: "bin 3"
- Compound: "CCNc1cc(C)nc(Nc2ccc(NC(=O)c3cccs3)cc2)n1"
  Cat: "bin 2"
- Compound: "Cc1[nH]cc(Br)c(=O)c1-c1ccc(Oc2ccc(OC(F)(F)F)cc2)cc1"
  Cat: "bin 2"
- Compound: "Cc1c(CCc2cccc(F)c2F)[nH]c2ccccc2c1=O"
  Cat: "bin 2"
- Compound: "CCOC(=O)c1cc2c(CCN3C(=O)c4ccccc4C3=O)cn(C)c2cc1-c1ccncc1"
  Cat: "bin 3"
- Compound: "COc1ccc(CN2CCC(CNC(C)c3cccc4ccccc34)CC2)cc1.O=C(O)C(F)(F)F (stereo not drawn)"
  Cat: "bin 2"
- Compound: "O=C(Nc1ccc(Cl)cc1)N[C@H]1CCN(CCCCCNC(=O)C2CC2c2ccc(Cl)c(Cl)c2)C1 (stereo partly drawn)"
  Cat: "bin 2"

====

# Test system: HepG2
# Test Description: GSK_TCMDC: Percent inhibition of human HepG2 cell line. Test compounds present at 10uM.
# Type: functional
Reported Inhibition values follow for various compounds
Measure: Inhibition (%)

- Compound: "Clc1ccc(Cl)c2[nH]c(CNCCCNc3nc4ccccc4[nH]3)cc12"
  Measure: "Inhibition"
  Value Measured: 88
- Compound: "CCc1ccc(O)c(-c2cc(C(=O)Nc3ccc(OC)c(Cl)c3)[nH]n2)c1"
  Measure: "Inhibition"
  Value Measured: 15
- Compound: "CC(C)(C)C(=O)Nc1ccc(C(=O)Nc2cccc(-c3nc4ccccc4[nH]3)c2)cc1"
  Measure: "Inhibition"
  Value Measured: 56
- Compound: "Cc1ccc2oc3cc(-c4nnn[nH]4)ccc3c(=O)c2c1"
  Measure: "Inhibition"
  Value Measured: 2
- Compound: "Cc1cc(CNCCCCCCCNCc2ccc(-c3ccccc3)cc2)ccc1O"
  Measure: "Inhibition"
  Value Measured: 49
- Compound: "NC1CCN(c2cnn(Cc3cccc(NC(=O)Nc4ccc(-c5ccccc5)cc4)c3)c(=O)c2Cl)CC1.O=C(O)C(F)(F)F"
  Measure: "Inhibition"
  Value Measured: 5
- Compound: "CCN(CCCN1CCCCC1)c1cc(C)nc(Nc2cccc(OC(F)(F)F)c2)n1.O=C(O)C(F)(F)F"
  Measure: "Inhibition"
  Value Measured: 32
- Compound: "Cc1cccc2nc(-c3cccc(-c4cccc(NC(=O)c5c[nH]cn5)c4)c3)[nH]c12"
  Measure: "Inhibition"
  Value Measured: 2
- Compound: "O=C(N[C@@H](CC1CCCCC1)C(=O)NCCN1CCCCC1)c1ccc(O)c(-c2ccc(Cl)c(Cl)c2)c1"
  Measure: "Inhibition"
  Value Measured: 14
- Compound: "CCN1CCC(N(Cc2ccc(-c3ccc(C(F)(F)F)s3)cc2)C(=O)Cn2c(CCc3cccc(F)c3F)nc(=O)c3ccccc32)CC1.O=C(O)C(O)C(O)C(=O)O"
  Measure: "Inhibition"
  Value Measured: 47
- Compound: "CCOC(=O)C(Oc1ccc2ccccc2c1)C(=O)OCC"
  Measure: "Inhibition"
  Value Measured: 8
- Compound: "Cc1[nH]c(C)c(C(F)(F)F)c(=O)c1-c1ccc(Oc2ccc(OC(F)(F)F)cc2)cc1"
  Measure: "Inhibition"
  Value Measured: 0
- Compound: "CC(C)NCc1ccc(-c2cccc(NC(=O)c3cccc(C#N)c3)c2)cc1.O=C(O)C(F)(F)F"
  Measure: "Inhibition"
  Value Measured: 9
- Compound: "COc1cc(C(=O)Nc2cccc(-c3cn4cccc(C)c4n3)c2)cc(OC)c1OC"
  Measure: "Inhibition"
  Value Measured: 0
- Compound: "Cc1ccc(-c2nc3cc(C(=O)NC4CCN(Cc5ccccc5)CC4)ccc3[nH]2)cc1"
  Measure: "Inhibition"
  Value Measured: 20
- Compound: "CC1(CCc2ccccc2)N=C(N)N(Cc2ccccc2)C(=O)C1c1ccc(Cl)c(Cl)c1.O=C(O)C(F)(F)F (stereo not drawn)"
  Measure: "Inhibition"
  Value Measured: 100
- Compound: "CC(C)S(=O)(=O)N1CCN(Cc2ccc3c(c2)nc(NC(=O)c2ccsc2)n3C[C@H](O)c2ccccc2)CC1"
  Measure: "Inhibition"
  Value Measured: 56
- Compound: "Cn1c(NCc2cc(F)cc3c2OCOC3)nc2cc(Nc3ccnc(Nc4cccc(CS(C)(=O)=O)c4)n3)ccc21"
  Measure: "Inhibition"
  Value Measured: 0

====

# Tested on: Plasmodium falciparum
# Test Description: GSK_TCMDC: Inhibition of Plasmodium falciparum 3D7 in whole red blood cells, using parasite LDH activity as an index of growth. Test compounds present at 2uM
# Format: functional

- Compound: "C[C@@H]([C@@H](CCCCc1ccccc1)C(=O)N[C@H](C(=O)Nc1cccnc1)C(C)(C)C)N(O)C=O"
  Display Unit: "%"
  Inhibition: 98
- Compound: "CCCc1cc(Cc2cnc(N)nc2N)cc(CCC)c1OC.Cl"
  Display Unit: "%"
  Inhibition: 92
- Compound: "CCc1cc2c3c(N)nc(N)nc3ccc2n1C(CC)CC"
  Display Unit: "%"
  Inhibition: 96
- Compound: "CCN(CCCNc1nc(=S)[nH]c2cc(OC)c(OC)cc12)c1ccccc1"
  Display Unit: "%"
  Inhibition: 100
- Compound: "COc1ccc(C2c3ccccc3-c3nc(N)nc(N)c3C2C)cc1 (centres undefined)"
  Display Unit: "%"
  Inhibition: 97
- Compound: "Fc1ccc(C=NNc2nc3ccccc3[nH]2)cc1"
  Display Unit: "%"
  Inhibition: 98
- Compound: "CN(C)c1ccc(CN2CCC(CNC(=O)c3cc(-c4ccccc4F)cs3)C2)cc1.O=C(O)C(F)(F)F (centres undefined)"
  Display Unit: "%"
  Inhibition: 100
- Compound: "CCc1cc2c(O)c([N+](=O)[O-])c(=O)oc2cc1OCCCCCOc1cc2oc(=O)c([N+](=O)[O-])c(O)c2cc1CC"
  Display Unit: "%"
  Inhibition: 99
- Compound: "CC(CN1CCN(C)CC1)C(=O)Nc1ccc(-c2cccc(-c3nc4cc(C(F)(F)F)ccc4[nH]3)c2)cc1 (centres undefined)"
  Display Unit: "%"
  Inhibition: 99
- Compound: "CN(C)CCCN1CCN(C(=O)c2cccc(-c3noc(C(F)(F)F)n3)c2)CC1"
  Display Unit: "%"
  Inhibition: 92
- Compound: "O=[N+]([O-])c1ccc(C2=NN(S(=O)(=O)c3c(Cl)cc(Cl)cc3Cl)CCCC2)cc1"
  Display Unit: "%"
  Inhibition: 99
- Compound: "N#Cc1cccc(-c2cnc(N)c(-c3nc4cc(S(N)(=O)=O)ccc4[nH]3)c2)c1"
  Display Unit: "%"
  Inhibition: 100
- Compound: "C[C@H](Cc1ccc(C[C@@H](C)NC[C@H](O)c2cccc(Cl)c2)cc1)NC[C@H](O)COc1ccccc1.Cl"
  Display Unit: "%"
  Inhibition: 96
- Compound: "CCN(CC)CCOc1ccc(C(O)(C#CC(O)(c2ccc(C)cc2)c2ccc(OCCN(CC)CC)cc2)c2ccc(C)cc2)cc1 (centres undefined)"
  Display Unit: "%"
  Inhibition: 97
- Compound: "Cc1nc2nc(N)nc(N)c2c(C)c1Cc1cccs1.Cl"
  Display Unit: "%"
  Inhibition: 95
- Compound: "Cc1cccc2nc(-c3cccc(-c4ccc(NC(=O)Cc5ccc[n+]([O-])c5)cc4)c3)[nH]c12"
  Display Unit: "%"
  Inhibition: 99
- Compound: "O=C(NC1CCCc2ccccc21)C1CCCN(C(=O)c2ccc(O)c(-c3ccc(Cl)c(Cl)c3)c2)C1 (centres undefined)"
  Display Unit: "%"
  Inhibition: 88
- Compound: "O=C(NCC1CCN(Cc2ccc3c(c2)OCCO3)C1)c1cc(-c2cccc(C(F)(F)F)c2)cs1.O=C(O)C(F)(F)F (centres undefined)"
  Display Unit: "%"
  Inhibition: 100
- Compound: "CN1CCCN(Cc2cccc(-c3cccc(NS(=O)(=O)c4cccc5cccnc45)c3)c2)CC1.O=C(O)C(F)(F)F"
  Display Unit: "%"
  Inhibition: 97
